- Test system: ACHN
- ASSAY REMARKS: CellTiter-Blue cell-based survival/proliferation assay, ACHN
- SETTINGS: Homo sapiens, Kidney, 48 h
MEASUREMENT TYPE: IC50

Exercise: Given `CCOCc1ccc(C)c(Nc2nc(-c3ccc(-n4cccn4)nc3)cs2)c1` , state its recorded IC50.
Key: > 1000 nM

###

- Test system: BXPC3
- ASSAY REMARKS: CellTiter-Blue cell-based survival/proliferation assay, BXPC3
- SETTINGS: Homo sapiens, BXPC-3, Pancreas, 48 h
MEASUREMENT TYPE: IC50

Exercise: Given CCOCc1ccc(C)c(Nc2nc(-c3ccc(-n4cccn4)nc3)cs2)c1 [Example 062] , state its recorded IC50.
Key: > 1000 nM

###

- Test system: SW579
- ASSAY REMARKS: CellTiter-Blue cell-based survival/proliferation assay, SW579
- SETTINGS: Homo sapiens, Head & Neck, 48 h
pIC50: −log10 of the molar value.
MEASUREMENT TYPE: pIC50

Exercise: Find the measured pIC50: item `CCOCc1ccc(C)c(Nc2nc(-c3ccc(-n4cccn4)nc3)cs2)c1` , target or system SW579.
Key: < 6.00

###

- Test system: MDAMB231
- ASSAY REMARKS: CellTiter-Blue cell-based survival/proliferation assay, MDAMB231
- SETTINGS: Homo sapiens, MDA-MB-231, Breast, 48 h
pIC50: −log10 of the molar value.
MEASUREMENT TYPE: pIC50

Exercise: Given `CCOCc1ccc(C)c(Nc2nc(-c3ccc(-n4cccn4)nc3)cs2)c1` , state its recorded pIC50.
Key: < 6.00

###

- System: HCT116
- ASSAY REMARKS: CellTiter-Blue cell-based survival/proliferation assay, HCT116
- SETTINGS: Homo sapiens, HCT-116, Colorectal, 48 h
pIC50: −log10 of the molar value.
MEASUREMENT TYPE: pIC50

Exercise: Given `CCOCc1ccc(C)c(Nc2nc(-c3ccc(-n4cccn4)nc3)cs2)c1` , state its recorded pIC50.
Key: < 6.00

###

- Test system: HGC27
- ASSAY REMARKS: CellTiter-Blue cell-based survival/proliferation assay, HGC27
- SETTINGS: Homo sapiens, HGC-27, Stomach, 48 h
MEASUREMENT TYPE: IC50

Exercise: Given CCOCc1ccc(C)c(Nc2nc(-c3ccc(-n4cccn4)nc3)cs2)c1 [Example 062] , state its recorded IC50.
Key: > 1000 nM

Values were extracted from patent US20180202388A1.
